test system: Wild type; test: S. aureus survival, RN4220 and DeltatarO strains – OD600, teichoic acid synthesis inhibitors, primary screen (AID 463173); details: S. aureus RN4220 wild type/DeltatarO growth, OD600, 18 h, screened at 18.75 µg/mL (by protocol)
The campaign covered roughly 52,000 compounds. About 1,700 (3.3%) were called active. Rule as the data show it: active = survival mostly below about 52% (no sharp cut-off); inactive = mostly above about 56%. Many of the other results were omitted from the sample, so actives are more common in it than they were.
Classes used: TRUE (active), FALSE (inactive)

>  <molecule>
Cc1cccc(CNC(=O)c2ccc3c(c2)N(C)C(=O)C2CCCCN32)c1 (stereo not given)

>  <cat>
TRUE

$$$$
>  <molecule>
CCCCc1nn2c(=O)cc(COC(=O)c3cccc(NC(=O)c4cccc(Cl)c4)c3)nc2s1

>  <cat>
FALSE

$$$$
>  <molecule>
CSc1ccc(CNC(=O)c2ccc3c(c2)N(C)C(=O)C2CCCCN32)cc1 (stereo not given)

>  <cat>
FALSE

$$$$
>  <molecule>
CC(C)Oc1ccc(CNC(=O)c2ccc3c(c2)N(C)C(=O)C2CCCCN32)cc1 (stereo not given)

>  <cat>
TRUE

$$$$
>  <molecule>
CCc1nc2ccc(C(=O)N3CCN(c4ccccc4F)CC3)cc2nc1CC

>  <cat>
FALSE

$$$$
